Recorded pIC50 values for a group of compounds are listed next.
System: P. falciparum 3D7 growth, pLDH absorbance
TEST NAME: blood-stage malaria parasite growth potency – strain 3D7, dose response (AID 2305)
By convention, pIC50 is the negative base-10 log of a molar concentration.

CCN(CCCN1CCCCC1)c1cc(C)nc(Nc2ccc(C(F)(F)F)cc2)n1: 6.43
O=C(NCc1ccc(Cl)c(Cl)c1)[C@H]1CNCCN1C(=O)c1ccccc1: 6.02
Cc1ccc(NC(=O)Nc2ccccc2F)cc1-c1ccc(C(=O)Nc2ccncc2)cc1: 6.25
CO/C(=C\C=C\c1cc2cc(Cl)c(Cl)cc2[nH]1)C(=O)NCCCN1CCN(c2cccc(CCCO)c2)CC1: 5.99

Now let's try a different one.
Problem: Determine its reported pIC50: "NC(=O)CNC(=O)CCCN=C(N)N"
Result: 6.77

* * *

// values below are reported IC50
System: P. falciparum 3D7 growth, pLDH absorbance
TEST NAME: blood-stage malaria parasite growth potency – strain 3D7, dose response (AID 2305)

Examples with their reported IC50 follow.
COc1ccc(-c2nonc2NC(=O)c2ccc(OC(C)C)cc2)cc1OC: 630 nM
Cn1nc(-c2ccc(CN[C@@H]3CCc4ccc(O)cc43)cc2)c2cnc(NCCCN3CCCC3)nc21: 800 nM
N#Cc1cc(C(=O)c2cc(Cl)ccc2O)cn(-c2cc(Cl)cc(Cl)c2)c1=O: 850 nM

Problem: Report IC50 on P. falciparum 3D7 growth, pLDH absorbance for this entry: "O=C(/C=C/c1ccc(Cl)c(Cl)c1)N1CCN(C(=O)Nc2ccc(C(F)(F)F)cc2)CC1"
Result: 670 nM

Problem: Give IC50; test system P. falciparum 3D7 growth, pLDH absorbance; compound "C#CCNCc1ccc(-c2ccc(-c3nc4ccc(C(F)(F)F)cc4[nH]3)s2)cc1"
Result: 740 nM

Problem: Give the observed IC50 of "O=C(c1cccc(-c2noc(C(F)(F)F)n2)c1)N1CCN(c2nsc3ccccc23)CC1" for P. falciparum 3D7 growth, pLDH absorbance.
Result: 140 nM

Problem: State recorded IC50 with P. falciparum 3D7 growth, pLDH absorbance, entry "CCOc1ccc(C2CCN(CCCCNC(=O)c3ccc(NC(=O)c4ccc(Cl)cc4)cc3)CC2)c(OCC)c1" , no comment.
Result: 680 nM

Problem: Give IC50; test system P. falciparum 3D7 growth, pLDH absorbance; compound COc1ccccc1N1CCN(C(C(=O)NCc2ccc3c(c2)OCO3)c2ccc(C)cc2)CC1 (centres undefined)
Result: 980 nM

Problem: Provide P. falciparum 3D7 growth, pLDH absorbance IC50 reading for "Cn1c(Nc2cc(C(C)(C)C)on2)nc2cc(Nc3ccnc(Nc4cccc(CS(C)(=O)=O)c4)n3)ccc21" .
Result: 570 nM

* * *

System: P. falciparum 3D7 growth, pLDH absorbance
TEST NAME: blood-stage malaria parasite growth potency – strain 3D7, dose response (AID 2305)
IC50 strictly under 700 nM means Condition met; at 700 nM or over means Condition not met.

Problem: Please let me know if "O=C(Cc1cccc(Cl)c1)Nc1ccc(N2CCC(NCc3ccc4ncccc4c3)CC2)cc1" shows IC50 below 700 nM.
Result: Condition not met

Problem: Please determine if "Cc1ccc2[nH]c(-c3ccc(/C=C/C(=O)NC4CCN(Cc5ccccc5)CC4)cc3)nc2c1C" is below 700 nM in terms of IC50.
Result: Condition met

Problem: Criterion: IC50 strictly below 700 nM. Is it met by CC(C)N(C)C(=O)n1cnc(S(=O)(=O)C2C[C@@H]3CC[C@H]2C3)n1 (some centres undefined) ?
Result: Condition met

Problem: Could you please tell me whether IC50 recorded for "O=C(N[C@@H](CC1CCCCC1)C(=O)NC1CCCCC1)c1ccc(O)c(-c2cccc(C(F)(F)F)c2)c1" is less than 700 nM?
Result: Condition not met

Problem: Say whether its IC50 is strictly beneath 700 nM. Entry: COC(=O)c1ccc(CC(C)NCC(O)c2cc(Cl)c(N)c(Cl)c2)cc1 (centres undefined)
Result: Condition not met

Problem: Hello, I'm reviewing records and need to know if IC50 of COc1cc(C(=O)N2CCOC(CCN3CC[C@@H]4c5ccccc5C[C@@H]43)(c3ccc(Cl)c(Cl)c3)C2)cc(OC)c1OC (some centres undefined) is below 700 nM. Could you check?
Result: Condition met

Problem: Does the reported IC50 of the following compound sit strictly below 700 nM? CCOC(=O)NOC(C(=O)O)c1ccccc1 (centres undefined)
Result: Condition met

* * *

System: P. falciparum 3D7 growth, pLDH absorbance
TEST NAME: blood-stage malaria parasite growth potency – strain 3D7, dose response (AID 2305)
Mark each entry Fulfilled if its IC50 sits below 700 nM, and Not fulfilled for all others.

Cc1ccc(C(=O)Cn2nc(-c3ccc(C)c(S(=O)(=O)N4CCCCC4)c3)ccc2=O)cc1: Fulfilled

Problem: Dear colleague, could you confirm whether IC50 of "O=S(=O)(Nc1ccc(CCN2CCC(N3CCCCC3)CC2)cc1)c1ccc(Cl)cc1" falls below 700 nM? Thanks.
Result: Not fulfilled

Problem: In the record for "C[C@H](Cc1ccc(S(=O)(=O)c2ccc(C[C@@H](C)NC[C@H](O)c3cccc(Cl)c3)cc2)cc1)NC[C@H](O)c1cccc(Cl)c1" , is IC50 less than 700 nM?
Result: Fulfilled

Problem: Please let me know if "Nc1nc(N)c2cc(CNc3ccc(Cl)c(Cl)c3)ccc2n1" shows IC50 below 700 nM.
Result: Not fulfilled

Problem: Lab note: IC50 threshold 700 nM. Does this compound come in strictly under it? CC(O)C1CCCCN1C(=O)c1cccc(-c2ccc(-c3nc4ccccc4[nH]3)s2)c1 (stereo unspecified)
Result: Not fulfilled

Problem: For this compound, is IC50 lower than 700 nM? "O=C(/C=C/c1ccc(Cl)c(Cl)c1)NCCCCCCN1CCN(C(=O)Nc2ccc(F)c(Cl)c2)CC1"
Result: Not fulfilled

Problem: Please state whether IC50 is below 700 nM for Cc1ccc(C(O)CNc2ccnc(Nc3cccc(-c4csc(C)n4)c3)n2)cc1 (stereo unspecified)
Result: Not fulfilled

Problem: is_below(IC50, 700 nM) for "CNCCNCc1ccc(-c2ccc(-c3nc4ccc(F)cc4[nH]3)cc2)cc1" ?
Result: Fulfilled

* * *

Below: a set of entries, each annotated with reported IC50.
System: P. falciparum 3D7 growth, pLDH absorbance
TEST NAME: blood-stage malaria parasite growth potency – strain 3D7, dose response (AID 2305)
Reply with the number, then its unit.

Take a look at these entries with their results.
CC(C)c1nc(N2CCN(C(=S)NCc3ccccc3)CC2)c(C#N)c2c1COC(C)(C)C2: 140 nM
CC(C)(C)c1cc(NC2CC2)nc(-c2ccccn2)n1: 720 nM
CCCCc1ccc2[nH]cc(C(=O)OCC)c(=O)c2c1: 630 nM
CCCCOC(=O)C1=C(C)NC2=C(C(=O)CCC2)C1c1ccc(OC)c(Br)c1 (centres undefined): 600 nM
COc1cccc(C(=O)NCc2cccs2)c1OCc1ccccc1: 920 nM

Problem: Quote IC50 reported for "CC1(C)N=C(N)N=C(N)N1OCc1cc(Cl)c(CON2C(N)=NC(N)=NC2(C)C)cc1Cl" please.
Result: 40 nM

Problem: Tell me IC50 reported for "CC(C)(C)OC(=O)/C=C(\C(=O)OCc1ccc([N+](=O)[O-])cc1)c1csc(NC(c2ccccc2)(c2ccccc2)c2ccccc2)n1"
Result: 860 nM

Problem: Specify reported IC50 for the molecule shown: "O=S(=O)(c1cc(Cl)sc1Cl)N(CCC(O)(C(F)(F)F)C(F)(F)F)Cc1cccc(O)c1"
Result: 740 nM

Problem: Query IC50 for Cc1ccccc1NC1=NC(=S)N(c2cccc(C(F)(F)F)c2)C12CCC(C(C)(C)C)CC2 (centres undefined)
Result: 970 nM

Problem: Give recorded IC50. "ON=C1CCc2cc(-c3nc(-c4cccc(OCCNCc5ccc(F)cc5)c4)[nH]c3-c3ccncc3)ccc21"
Result: 890 nM

Problem: Report IC50, nothing else, for this molecule: "c1ccc(CCNCc2ccc(-c3cccc(CNc4ccc5ncccc5c4)c3)cc2)cc1"
Result: 930 nM

Problem: Tell me IC50 reported for "O=C(Cn1c(=O)cnc2ccccc21)Nc1cccc(C(=O)Nc2cccc(C(F)(F)F)c2)c1"
Result: 280 nM

Problem: # return recorded IC50 for input "O=C(NCCCCN1CCN(c2cccc3ccccc23)CC1)c1ccc(NC(=O)c2ccc(Cl)cc2)cc1"
Result: 360 nM

Problem: Provide one value: measured IC50 of CCCC(CNCc1cccc(SC(F)(F)F)c1)CNc1cc(=O)c2ccccc2[nH]1 (centres undefined)
Result: 710 nM

Problem: Give the reported IC50 for this molecule. "O=C(/C=C/c1ccc(Cl)cc1)Nc1ccc2nc(CN3CCCC3)ccc2c1"
Result: 80 nM

Problem: Report IC50 for COc1ccc(C2N=C(N)N=C(N)N2OCc2ccccc2)cc1OC (centres undefined)
Result: 130 nM

Problem: Please report IC50 for the following molecule: "CCCCCCN1CCC(NCc2ccc(C)cc2)CC1"
Result: 860 nM

Hey, just so you know, these numbers are from PubChem BioAssay AID2305.
